# protocol description: in vitro
# Set-up: species or system HB2, HEK293
# test settings: human, ccd841 cells
Property: viability at 48 h, 10 µM; scope: individual compounds
Please reply with the bare figure in % and do not write the unit itself.

O=C(NC1CCN(C(=O)CCl)CC1)c1ccccc1 [PCM-0102575] | 68.2
O=C(O)C1Cc2ccccc2CN1C(=O)CCl (stereo not shown) [PCM-0102761] | 91.2
O=C(CCl)N1CCC(C(=O)N2CCCCCC2)CC1 [PCM-0102781] | 92.5

Record Cc1ccc(NC(=O)CCl)cc1Br [PCM-0102955] . Reported viability at 48 h, 10 µM: 71.2

Record O=C(CCl)N1CCC(c2ccccc2)=N1 [PCM-0102150] . Reported viability at 48 h, 10 µM: 71.8

Record O=C(CCl)NC1(c2ccccc2)CCC1 [PCM-0102935] . Reported viability at 48 h, 10 µM: 89.7

Record CC(NC(=O)CCl)c1ccc2ccccc2c1 (stereo not shown) [PCM-0102350] . Reported viability at 48 h, 10 µM: 70.6

Record O=C(CCl)NNC(=O)c1cccs1 [PCM-0102426] . Reported viability at 48 h, 10 µM: 88.7

Record C=CC(=O)N1CCC2(CCc3ccccc3O2)C1 (stereo not shown) [PCM-0103025] . Reported viability at 48 h, 10 µM: 90.8

Record CC1CCCCC1NC(=O)NC(=O)CCl (stereo not shown) [PCM-0102292] . Reported viability at 48 h, 10 µM: 69

---

Property: viability at 48 h, 10 µM; scope: individual compounds
# protocol description: in vitro
# Parameters: species or system HB2, HEK293
# test settings: human, ccd841 cells
Please reply with the bare figure in % and do not write the unit itself.

CCOC(=O)C1CCCCN1C(=O)CCl (stereo not shown) | 89.4
CC(NC(=O)CCl)C(=O)N1CCCCC1 (stereo not shown) | 99.9
O=C(CCl)NC(=O)OCc1ccccc1 | 109
O=C(CCl)NCC1CCC1 | 108
C=CC(=O)Nc1ccc(F)c(F)c1 | 112

Record COC(=O)c1c(NC(=O)CCl)sc2c1CCC(C)C2 (stereo not shown) . Reported viability at 48 h, 10 µM: 88.6

Record `Cc1cc(NC(=O)CCl)n(C(C)(C)C)n1` . Reported viability at 48 h, 10 µM: 61.7

Record `Cc1ccc(S(=O)(=O)NC(=O)CCl)cc1` . Reported viability at 48 h, 10 µM: 114

Record `O=C1CN(C(=O)CCl)c2ccc(C(F)(F)F)cc2N1` . Reported viability at 48 h, 10 µM: 96.4

Record `C=CC(=O)NCc1nnc(C(C)(C)C)s1` . Reported viability at 48 h, 10 µM: 108

---

# protocol description: in vitro
# Set-up: species or system CCD841, HEK293
# test settings: human, hb2 cells, read-out: HB-2 Cells Viability (%)
Property: viability at 48 h, 10 µM; scope: individual compounds
Please reply with the bare figure in % and do not write the unit itself.

C=CC(=O)N1Cc2c(OC)ccc(OC)c2C(O)C1 (stereo not shown) | 104

Record `C=CC(=O)Nc1cccc(Br)c1` . Reported viability at 48 h, 10 µM: 97.1

Record `O=C(CCl)NCc1ccco1` . Reported viability at 48 h, 10 µM: 102

Record `C=CC(=O)NC(C)(C)c1noc(C(C)(C)C)n1` . Reported viability at 48 h, 10 µM: 95.8

Record C=CC(=O)N1CC(C)(C)C1c1cccs1 (stereo not shown) . Reported viability at 48 h, 10 µM: 107
